Known shrunken log2 fold change of a selection of sequences
Tested on: Escherichia coli TOP10
Test: shrunken log2 fold change of peptide-encoding DNA abundance (4.5 h post-induction vs induction); higher = less antimicrobial activity (less host growth inhibition)
Conditions: time post-induction: 4.5 h; library: site-saturation at positions 5, 18, 19, 20
reported endpoint: shrunken log2 fold change

{"columns": ["monomer sequence", "endpoint value"],
 "data": [
  ["RRIRKRPPRLPRPRPRPEKDPRP", 0.518],
  ["RRIRTRPPRLPRPRPRPTNIPRP", -0.519],
  ["RRIRIRPPRLPRPRPRPWQGPRP", -0.125],
  ["RRIRVRPPRLPRPRPRPLVWPRP", 0.115],
  ["RRIRVRPPRLPRPRPRPWWCPRP", -0.0966],
  ["RRIRCRPPRLPRPRPRPLYEPRP", -0.43],
  ["RRIRGRPPRLPRPRPRPTTNPRP", 0.878],
  ["RRIRERPPRLPRPRPRPVYAPRP", -0.288],
  ["RRIRMRPPRLPRPRPRPCCRPRP", 0.0467],
  ["RRIRCRPPRLPRPRPRPLWNPRP", -0.208],
  ["RRIRVRPPRLPRPRPRPMTWPRP", -0.124],
  ["RRIRRRPPRLPRPRPRPCTLPRP", -0.49],
  ["RRIRVRPPRLPRPRPRPWISPRP", -0.0628],
  ["RRIRERPPRLPRPRPRPSMWPRP", -0.0377],
  ["RRIRMRPPRLPRPRPRPVKCPRP", -0.0525],
  ["RRIRERPPRLPRPRPRPQPSPRP", 0.0462],
  ["RRIRIRPPRLPRPRPRPYNEPRP", -0.0675],
  ["RRIRRRPPRLPRPRPRPISHPRP", -0.215],
  ["RRIRKRPPRLPRPRPRPEEMPRP", -0.000157],
  ["RRIRIRPPRLPRPRPRPTPLPRP", 0.245],
  ["RRIRYRPPRLPRPRPRPQAMPRP", -0.418],
  ["RRIRLRPPRLPRPRPRPWFRPRP", -0.252],
  ["RRIRSRPPRLPRPRPRPGMQPRP", -0.394],
  ["RRIRTRPPRLPRPRPRPWPMPRP", 0.44],
  ["RRIRIRPPRLPRPRPRPRLPPRP", 0.161],
  ["RRIRIRPPRLPRPRPRPPHGPRP", -0.0482]
]}

----------
Tested on: Escherichia coli TOP10
Experiment: shrunken log2 fold change of peptide-encoding DNA abundance (4.5 h post-induction vs induction); higher = less antimicrobial activity (less host growth inhibition)
Details: time post-induction: 4.5 h; library: site-saturation at positions 5, 18, 19, 20
Response key: Fulfilled means shrunken log2 fold change >= -0.02; Not fulfilled means shrunken log2 fold change < -0.02.

{"columns": ["monomer sequence", "qualitative label"],
 "data": [
  ["RRIRGRPPRLPRPRPRPGCFPRP", "Fulfilled"],
  ["RRIRYRPPRLPRPRPRPFAQPRP", "Not fulfilled"],
  ["RRIRYRPPRLPRPRPRPAHHPRP", "Not fulfilled"],
  ["RRIRIRPPRLPRPRPRPSGCPRP", "Not fulfilled"],
  ["RRIRERPPRLPRPRPRPARLPRP", "Fulfilled"],
  ["RRIRRRPPRLPRPRPRPYRSPRP", "Not fulfilled"],
  ["RRIRNRPPRLPRPRPRPIQFPRP", "Not fulfilled"],
  ["RRIRWRPPRLPRPRPRPYYKPRP", "Not fulfilled"],
  ["RRIRGRPPRLPRPRPRPYVDPRP", "Not fulfilled"],
  ["RRIRYRPPRLPRPRPRPRIWPRP", "Fulfilled"],
  ["RRIRLRPPRLPRPRPRPVERPRP", "Fulfilled"],
  ["RRIRCRPPRLPRPRPRPRIKPRP", "Fulfilled"],
  ["RRIRPRPPRLPRPRPRPHRPPRP", "Fulfilled"],
  ["RRIRPRPPRLPRPRPRPGPTPRP", "Fulfilled"],
  ["RRIRIRPPRLPRPRPRPAPVPRP", "Fulfilled"],
  ["RRIRARPPRLPRPRPRPYSDPRP", "Not fulfilled"],
  ["RRIRMRPPRLPRPRPRPFWQPRP", "Fulfilled"],
  ["RRIRMRPPRLPRPRPRPWAKPRP", "Fulfilled"],
  ["RRIRFRPPRLPRPRPRPIICPRP", "Fulfilled"],
  ["RRIRMRPPRLPRPRPRPLRGPRP", "Fulfilled"],
  ["RRIRWRPPRLPRPRPRPASHPRP", "Fulfilled"],
  ["RRIRFRPPRLPRPRPRPNFSPRP", "Not fulfilled"],
  ["RRIRTRPPRLPRPRPRPARPPRP", "Fulfilled"]
]}

----------
System: Escherichia coli TOP10
Assay: shrunken log2 fold change of peptide-encoding DNA abundance (4.5 h post-induction vs induction); higher = less antimicrobial activity (less host growth inhibition)
Details: time post-induction: 4.5 h; library: site-saturation at positions 5, 18, 19, 20
Recorded shrunken log2 fold change, one value per entry.
reported endpoint: shrunken log2 fold change

{"columns": ["monomer sequence", "reported endpoint", "endpoint value"],
 "data": [
  ["RRIRCRPPRLPRPRPRPYSEPRP", "shrunken log2 fold change", -0.766],
  ["RRIRHRPPRLPRPRPRPHEIPRP", "shrunken log2 fold change", -0.0135],
  ["RRIRCRPPRLPRPRPRPREGPRP", "shrunken log2 fold change", 1.09],
  ["RRIRFRPPRLPRPRPRPEKCPRP", "shrunken log2 fold change", 0.00859],
  ["RRIRMRPPRLPRPRPRPLDGPRP", "shrunken log2 fold change", 0.844],
  ["RRIRRRPPRLPRPRPRPWKRPRP", "shrunken log2 fold change", -0.0441]
]}

----------
System: Escherichia coli TOP10
Experiment: shrunken log2 fold change of peptide-encoding DNA abundance (4.5 h post-induction vs induction); higher = less antimicrobial activity (less host growth inhibition)
Conditions: time post-induction: 4.5 h; library: site-saturation at positions 5, 18, 19, 20
reported endpoint: shrunken log2 fold change

{"columns": ["monomer sequence", "endpoint value"],
 "data": [
  ["RRIRMRPPRLPRPRPRPKWYPRP", -0.171],
  ["RRIRKRPPRLPRPRPRPVVGPRP", 0.686],
  ["RRIRLRPPRLPRPRPRPLPGPRP", 0.781],
  ["RRIRTRPPRLPRPRPRPSHCPRP", -0.0229],
  ["RRIRFRPPRLPRPRPRPVSHPRP", -0.266],
  ["RRIRWRPPRLPRPRPRPCYMPRP", -0.282],
  ["RRIRCRPPRLPRPRPRPIHEPRP", -0.115],
  ["RRIRQRPPRLPRPRPRPYAMPRP", -0.341],
  ["RRIRERPPRLPRPRPRPFAGPRP", -1.68],
  ["RRIRNRPPRLPRPRPRPMCQPRP", -0.0153],
  ["RRIRERPPRLPRPRPRPFHIPRP", -0.133],
  ["RRIRTRPPRLPRPRPRPYEWPRP", -0.139],
  ["RRIRGRPPRLPRPRPRPDNIPRP", 0.119],
  ["RRIRTRPPRLPRPRPRPQVNPRP", -0.587],
  ["RRIRKRPPRLPRPRPRPQIFPRP", -0.0259],
  ["RRIRGRPPRLPRPRPRPIDWPRP", 0.559],
  ["RRIRLRPPRLPRPRPRPHIPPRP", -0.664],
  ["RRIRWRPPRLPRPRPRPHYRPRP", 0.0266],
  ["RRIRQRPPRLPRPRPRPNDIPRP", -0.348],
  ["RRIRLRPPRLPRPRPRPFNFPRP", -0.855],
  ["RRIRLRPPRLPRPRPRPKLNPRP", -0.182]
]}

----------
System: Escherichia coli TOP10;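 also: peptides expressed intracellularly from a pBAD plasmid library in pooled LB shake-flask culture, induced with 0.3% L-arabinose, DNA abundance read by NGS, three biological replicates, DESeq2 with apeglm shrinkage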
Experiment: shrunken log2 fold change of peptide-encoding DNA abundance (4.5 h post-induction vs induction); higher = less antimicrobial activity (less host growth inhibition)
Settings: time post-induction: 4.5 h; library: site-saturation at positions 5, 18, 19, 20
The following sequences are shown together with reported shrunken log2 fold change values.

{"columns": ["monomer sequence", "shrunken log2 fold change"],
 "data": [
  ["RRIRHRPPRLPRPRPRPFEPPRP", 0.00846],
  ["RRIRTRPPRLPRPRPRPHCPPRP", -0.605],
  ["RRIRQRPPRLPRPRPRPLSQPRP", -0.0534],
  ["RRIRKRPPRLPRPRPRPFFGPRP", 0.304],
  ["RRIRERPPRLPRPRPRPWEAPRP", 0.74],
  ["RRIRHRPPRLPRPRPRPWIVPRP", -0.404],
  ["RRIRQRPPRLPRPRPRPHNWPRP", -0.311],
  ["RRIRRRPPRLPRPRPRPAGIPRP", 0.352],
  ["RRIRGRPPRLPRPRPRPKWQPRP", 0.194],
  ["RRIRMRPPRLPRPRPRPWLEPRP", -0.00871],
  ["RRIRIRPPRLPRPRPRPQALPRP", -0.0788]
]}
